MEASUREMENT TARGET: T1, IL-2 receptor of the human CD4 positive T cell clone 3F8 (expresses CD25 and CD122) (human, UniProt P01589 22-272; P14784 27-551)
T1 sequence 1: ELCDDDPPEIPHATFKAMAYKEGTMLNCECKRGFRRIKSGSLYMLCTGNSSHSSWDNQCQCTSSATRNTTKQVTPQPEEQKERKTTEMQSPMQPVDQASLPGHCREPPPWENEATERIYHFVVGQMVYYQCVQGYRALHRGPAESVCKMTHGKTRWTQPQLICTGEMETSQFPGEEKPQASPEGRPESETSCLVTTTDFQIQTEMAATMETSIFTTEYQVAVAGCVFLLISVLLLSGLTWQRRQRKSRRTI
T1 sequence 2: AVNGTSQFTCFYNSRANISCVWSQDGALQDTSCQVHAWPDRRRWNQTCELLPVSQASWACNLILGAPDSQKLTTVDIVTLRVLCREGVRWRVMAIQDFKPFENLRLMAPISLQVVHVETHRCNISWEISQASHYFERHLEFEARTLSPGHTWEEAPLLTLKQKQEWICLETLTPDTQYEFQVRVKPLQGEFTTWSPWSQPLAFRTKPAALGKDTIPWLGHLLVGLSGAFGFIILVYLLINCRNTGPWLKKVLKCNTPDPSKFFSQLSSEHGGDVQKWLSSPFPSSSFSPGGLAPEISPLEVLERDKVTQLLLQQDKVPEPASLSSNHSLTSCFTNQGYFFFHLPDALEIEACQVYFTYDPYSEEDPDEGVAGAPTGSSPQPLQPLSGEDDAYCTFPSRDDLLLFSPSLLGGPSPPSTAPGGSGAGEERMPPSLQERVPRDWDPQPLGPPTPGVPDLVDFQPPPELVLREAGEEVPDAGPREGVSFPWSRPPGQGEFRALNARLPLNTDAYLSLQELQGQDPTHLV
PROTOCOL: cell-based or functional assay
QUANTITY KIND: IFNγ Production IC50 (pM), 3F8 cells

hIL2 mutein REL (L18R, Q22E, Q126L) (ligand) APTSSSTKKTQLQLEHLRLDLEMILNGINNYKNPKLTRMLTFKFYMPKKATELKHLQCLEEELKPLEEVLNLAQSKNFHLRPRDLISNINVIVLELKGSETTFMCEYADETATIVEFLNRWITFCLSIISTLT | 33.8
hIL2 mutein REK (L18R, Q22E, Q126K) (ligand) APTSSSTKKTQLQLEHLRLDLEMILNGINNYKNPKLTRMLTFKFYMPKKATELKHLQCLEEELKPLEEVLNLAQSKNFHLRPRDLISNINVIVLELKGSETTFMCEYADETATIVEFLNRWITFCKSIISTLT | 17.7
hIL2 mutein REY (L18R, Q22E, Q126Y) (ligand) APTSSSTKKTQLQLEHLRLDLEMILNGINNYKNPKLTRMLTFKFYMPKKATELKHLQCLEEELKPLEEVLNLAQSKNFHLRPRDLISNINVIVLELKGSETTFMCEYADETATIVEFLNRWITFCYSIISTLT | 22.1
hIL2 mutein REV (L18R, Q22E, Q126V) (ligand) APTSSSTKKTQLQLEHLRLDLEMILNGINNYKNPKLTRMLTFKFYMPKKATELKHLQCLEEELKPLEEVLNLAQSKNFHLRPRDLISNINVIVLELKGSETTFMCEYADETATIVEFLNRWITFCVSIISTLT | 21.2
hIL2 mutein REF (L18R, Q22E, Q126F) (ligand) APTSSSTKKTQLQLEHLRLDLEMILNGINNYKNPKLTRMLTFKFYMPKKATELKHLQCLEEELKPLEEVLNLAQSKNFHLRPRDLISNINVIVLELKGSETTFMCEYADETATIVEFLNRWITFCFSIISTLT | 38.3
hIL2 mutein HEK (L18H, Q22E, Q126K) (ligand) APTSSSTKKTQLQLEHLHLDLEMILNGINNYKNPKLTRMLTFKFYMPKKATELKHLQCLEEELKPLEEVLNLAQSKNFHLRPRDLISNINVIVLELKGSETTFMCEYADETATIVEFLNRWITFCKSIISTLT | 30.4
